The measurements presented in this section are drawn from patent US20230022724A1.

system: Acinetobacter baumannii ATCC17978; assay: Antimicrobial susceptibility testing: 90% growth inhibitory concentration (IC90) determination; format: cell-based; settings: Acinetobacter baumannii, ATCC17978, 16 h, 90% growth inhibitory concentration, Acinetobacter baumannii ATCC17978, Iso-Sensitest broth, OD 600 nm over 16 h; read-out: ATCC17978 IC90
Structures can show the parent of a compound that is named as a salt.
Decide using IC90 alone. Strictly below 0.3 µM: YES. Equal to or above 0.3 µM: NO.

COc1ccc(-c2cnc3c(Nc4ccc(C(=O)N5CCN(C6CCNC6)CC5)c(Cl)c4)nccn23)cc1F (centres unmarked) [Example 71, hydrochloride]: YES

Q: I'd appreciate it if you could check whether COc1ccc(-c2cnc3c(Nc4ccc(C(=O)N5CCC(C(=O)NCC(O)CN)CC5)c(Cl)c4)nccn23)cc1F (centres unmarked) [Example 60, hydrochloride] has IC90 smaller than 0.3 µM.
A: YES

Q: Another compound to look at: COc1ccc(-c2cnc3c(Nc4ccc(C(=O)N5CCC(CCN)CC5)c(Cl)c4)nccn23)c(F)c1F
A: YES

Q: Another compound to look at: N#CCOc1ccc(-c2cnc3c(Nc4ccc(C(=O)N5CCN(CCN6CCC[C@H]6C(=O)O)CC5)c(Cl)c4)nccn23)c(F)c1F [Example 104, trifluoroacetate]
A: NO

Q: Another compound to look at: Cn1cnnc1C1CCN(C(=O)c2ccc(Nc3nccn4c(-c5ccc(OCC#N)c(F)c5F)cnc34)cc2Cl)CC1
A: YES

Q: Another compound to look at: O=C(c1ccc(Nc2nccn3c(-c4ccc(OC(F)F)cc4)cnc23)cc1Cl)N1CCC(N2CCNCC2)CC1 [Example 67, hydrochloride]
A: YES

Q: Another compound to look at: COc1ccc(-c2cnc3c(Nc4ccc(C(=O)N5CCC(CN)CC5)c(Br)c4)nccn23)cc1F
A: YES

Q: Another compound to look at: COc1ccc(-c2cnc3c(Nc4ccc(C(=O)N5CCN(CCNC6CC6)CC5)c(Cl)c4)nccn23)cc1F
A: NO
